Recorded log10 IC50 values (JAK1 (Homo sapiens (Human), UniProt P23458)) are given below.
Please be aware that the numbers have been log10-transformed from IC50 in nM.

Below, each entry is followed by its recorded log10 IC50 result.
compound	measured_result
O=C(Nc1nc2cccc(C3CCC4(CC3)CN(C(=O)[C@H]3CC3(F)F)C4)n2n1)[C@@H]1CC1(F)F	0.85
O=C(Nc1nc2cccc([C@@H]3CCC4(C3)CN(C(=O)[C@@H]3CC3(F)F)C4)n2n1)C1CC1	2.25
O=C(Nc1nc2cccc(C3CCC4(CC3)CCN(C(=O)C3CC3(F)F)C4)n2n1)C1CC1 (single isomer, unassigned) [Compound 5-8]	1.88
O=C(Nc1nc2cccc([C@@H]3CCC4(CCN(C(=O)[C@@H]5CC5(F)F)CC4)C3)n2n1)C1CC1 (single isomer, unassigned)	2.58
N#CCCN1CC2(CCC(c3cccc4nc(NC(=O)C5CC5)nn34)CC2)C1	1.81
N#CCN1CC2(CCC(c3cccc4nc(NC(=O)[C@@H]5CC5(F)F)nn34)CC2)C1	2.64

Ask | State the measured log10 IC50 (JAK1 (Homo sapiens (Human), UniProt P23458)) of N#CCC(=O)N1CC2(CCC(F)(c3cccc4nc(NC(=O)C5CC5)nn34)CC2)C1
Reply | 2.23

Ask | State the measured log10 IC50 (JAK1 (Homo sapiens (Human), UniProt P23458)) of N#CCN1CC2(CCC(c3cccc4nc(NC(=O)[C@H]5CC5(F)F)nn34)CC2)C1
Reply | 1.72

Ask | State the measured log10 IC50 (JAK1 (Homo sapiens (Human), UniProt P23458)) of O=C(Nc1nc2cccc(C3CCC4(CC3)CCN(C(=O)C3CC3(F)F)C4)n2n1)C1CC1 (single isomer, unassigned) [Compound 5-7]
Reply | 1.49

Ask | State the measured log10 IC50 (JAK1 (Homo sapiens (Human), UniProt P23458)) of O=C(Nc1nc2cccc(C3CCC4(CC3)CN(C(=O)[C@H]3CC3(F)F)C4)n2n1)[C@H]1CC1(F)F
Reply | 1.15

Ask | State the measured log10 IC50 (JAK1 (Homo sapiens (Human), UniProt P23458)) of O=C(Nc1nc2cccc([C@H]3CCC4(CCN(C(=O)[C@@H]5CC5(F)F)CC4)C3)n2n1)C1CC1 (single isomer, unassigned)
Reply | 1.80

====

// reported IC50 per item
# study_target: UniProtKB O60674
// units = nM; emit number, no label

Below, each entry is followed by its recorded IC50 result.
compound	unit_abbreviation	IC50
O=C(Nc1nc2cccc(C3CCC4(CC3)CN(C(=O)[C@H]3CC3(F)F)C4)n2n1)[C@H]1CC1(F)F	nM	110
O=C(Nc1nc2cccc([C@@H]3CCC4(CCN(C(=O)[C@@H]5CC5(F)F)CC4)C3)n2n1)C1CC1 (single isomer, unassigned)	nM	1920

Moving on to the next compound.
Ask | State the measured IC50 (UniProtKB O60674) of O=C(Nc1nc2cccc(C3CCC4(CC3)CN(C(=O)[C@H]3CC3(F)F)C4)n2n1)[C@@H]1CC1(F)F
Reply | 292

====

# study_target: JAK3 (Homo sapiens (Human), UniProt P52333)
# Sequence (P52333 whole entry): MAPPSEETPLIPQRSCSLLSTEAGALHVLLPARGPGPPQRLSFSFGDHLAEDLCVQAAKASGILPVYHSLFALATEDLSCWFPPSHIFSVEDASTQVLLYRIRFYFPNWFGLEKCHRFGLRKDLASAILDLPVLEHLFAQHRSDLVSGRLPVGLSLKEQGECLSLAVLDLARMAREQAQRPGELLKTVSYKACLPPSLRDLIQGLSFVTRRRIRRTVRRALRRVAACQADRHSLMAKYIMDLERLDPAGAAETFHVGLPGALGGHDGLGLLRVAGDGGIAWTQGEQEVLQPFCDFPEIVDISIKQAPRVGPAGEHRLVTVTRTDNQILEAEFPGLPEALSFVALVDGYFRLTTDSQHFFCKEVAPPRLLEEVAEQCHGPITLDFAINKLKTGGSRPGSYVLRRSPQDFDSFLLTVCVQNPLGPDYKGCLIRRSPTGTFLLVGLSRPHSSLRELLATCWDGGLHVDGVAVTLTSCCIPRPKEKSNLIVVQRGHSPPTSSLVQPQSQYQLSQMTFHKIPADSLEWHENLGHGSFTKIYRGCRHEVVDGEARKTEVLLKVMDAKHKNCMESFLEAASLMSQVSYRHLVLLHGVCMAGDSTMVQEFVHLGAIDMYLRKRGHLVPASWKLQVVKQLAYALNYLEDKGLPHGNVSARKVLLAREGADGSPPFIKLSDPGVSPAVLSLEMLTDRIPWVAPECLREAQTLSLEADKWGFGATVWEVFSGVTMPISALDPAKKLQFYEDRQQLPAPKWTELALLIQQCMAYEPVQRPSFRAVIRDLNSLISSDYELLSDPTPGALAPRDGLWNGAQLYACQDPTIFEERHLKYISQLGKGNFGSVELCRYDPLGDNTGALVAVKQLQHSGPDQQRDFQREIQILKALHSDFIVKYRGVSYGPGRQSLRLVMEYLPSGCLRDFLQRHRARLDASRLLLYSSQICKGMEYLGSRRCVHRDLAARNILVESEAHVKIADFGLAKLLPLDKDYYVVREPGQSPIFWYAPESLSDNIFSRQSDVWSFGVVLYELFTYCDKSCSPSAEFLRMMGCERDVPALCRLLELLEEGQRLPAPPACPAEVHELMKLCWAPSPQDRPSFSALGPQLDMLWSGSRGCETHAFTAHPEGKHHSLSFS
Could you please mark T for values of IC50 below 8 µM and F for values at or above it?

Example entries begin here.
compound	class
N#CCCN1CC2(CCC(c3cccc4nc(NC(=O)C5CC5)nn34)CC2)C1 [Compound 1-17]	F
N#CCN1CC2(CCC(c3cccc4nc(NC(=O)[C@@H]5CC5(F)F)nn34)CC2)C1 [Compound 9-6]	F
O=C(Nc1nc2cccc(C3CCC4(CC3)CCN(C(=O)C3CC3(F)F)C4)n2n1)C1CC1 (single isomer, unassigned) [Compound 5-7]	T
O=C(Nc1nc2cccc(C3CCC4(CC3)CCN(C(=O)C3CC3(F)F)C4)n2n1)C1CC1 (single isomer, unassigned) [Compound 5-8]	T
O=C(Nc1nc2cccc(C3CCC4(CC3)CN(C(=O)[C@H]3CC3(F)F)C4)n2n1)[C@@H]1CC1(F)F [Compound 9-3]	F

Ask | Dear reviewer, please state whether O=C(Nc1nc2cccc([C@H]3CCC4(CCN(C(=O)[C@@H]5CC5(F)F)CC4)C3)n2n1)C1CC1 (single isomer, unassigned) [Compound 6-7] has IC50 strictly beneath 8 µM.
Reply | F

Ask | Dear reviewer, please state whether N#CCN1CC2(CCC(c3cccc4nc(NC(=O)[C@H]5CC5(F)F)nn34)CC2)C1 [Compound 8-9] has IC50 strictly beneath 8 µM.
Reply | F

Ask | Dear reviewer, please state whether O=C(Nc1nc2cccc(C3CCC4(CC3)CN(C(=O)[C@H]3CC3(F)F)C4)n2n1)[C@H]1CC1(F)F [Compound 8-6] has IC50 strictly beneath 8 µM.
Reply | T

Ask | Dear reviewer, please state whether N#CCC(=O)N1CC2(CCC(F)(c3cccc4nc(NC(=O)C5CC5)nn34)CC2)C1 [Compound 4-6] has IC50 strictly beneath 8 µM.
Reply | F

Ask | Dear reviewer, please state whether O=C(Nc1nc2cccc([C@@H]3CCC4(CCN(C(=O)[C@@H]5CC5(F)F)CC4)C3)n2n1)C1CC1 (single isomer, unassigned) [Compound 6-8] has IC50 strictly beneath 8 µM.
Reply | F

====

# study_target: JAK2 (Homo sapiens (Human), UniProt O60674)
# Sequence (O60674 whole entry): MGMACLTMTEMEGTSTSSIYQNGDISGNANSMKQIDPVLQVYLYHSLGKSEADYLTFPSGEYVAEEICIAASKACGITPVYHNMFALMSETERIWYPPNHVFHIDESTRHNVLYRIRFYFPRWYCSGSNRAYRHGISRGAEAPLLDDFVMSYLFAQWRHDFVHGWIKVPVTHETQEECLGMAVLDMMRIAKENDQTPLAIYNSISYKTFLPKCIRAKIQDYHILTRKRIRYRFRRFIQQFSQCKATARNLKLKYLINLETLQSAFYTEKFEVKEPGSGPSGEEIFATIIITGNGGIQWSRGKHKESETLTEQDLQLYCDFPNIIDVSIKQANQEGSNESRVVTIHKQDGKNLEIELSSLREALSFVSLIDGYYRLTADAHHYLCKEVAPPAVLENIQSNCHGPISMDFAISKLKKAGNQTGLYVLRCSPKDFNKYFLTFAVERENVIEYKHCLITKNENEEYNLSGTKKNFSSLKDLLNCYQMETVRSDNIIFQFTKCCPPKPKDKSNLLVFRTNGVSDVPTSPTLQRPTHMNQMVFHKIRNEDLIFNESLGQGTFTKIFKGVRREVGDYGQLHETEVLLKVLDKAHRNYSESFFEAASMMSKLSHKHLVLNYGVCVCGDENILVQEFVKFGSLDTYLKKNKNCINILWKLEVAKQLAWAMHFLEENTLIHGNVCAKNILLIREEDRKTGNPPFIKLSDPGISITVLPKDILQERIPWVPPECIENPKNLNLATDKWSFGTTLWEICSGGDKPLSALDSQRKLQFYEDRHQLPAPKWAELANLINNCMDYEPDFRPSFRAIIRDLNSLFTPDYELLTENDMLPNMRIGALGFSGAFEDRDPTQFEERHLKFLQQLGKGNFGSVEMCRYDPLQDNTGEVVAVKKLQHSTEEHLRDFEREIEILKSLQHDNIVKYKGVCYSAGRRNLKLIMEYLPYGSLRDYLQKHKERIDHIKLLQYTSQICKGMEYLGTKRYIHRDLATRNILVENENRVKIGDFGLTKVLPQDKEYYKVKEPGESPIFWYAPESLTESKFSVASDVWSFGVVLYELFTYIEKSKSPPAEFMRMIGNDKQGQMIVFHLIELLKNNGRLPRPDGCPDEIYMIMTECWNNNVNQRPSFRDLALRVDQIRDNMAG
# assay_protocol: In vitro activity test of JAK2 kinase
# recorded_conditions: read-out: JAK2 (IC50)
// reported IC50 per item
// units = nM; emit number, no label

Below, each entry is followed by its recorded IC50 result.
compound	study_target	unit_abbreviation	measured_result
O=C(Nc1nc2cccc([C@H]3CCC4(CCN(C(=O)[C@@H]5CC5(F)F)CC4)C3)n2n1)C1CC1 (single isomer, unassigned) [Compound 6-7]	JAK2 (Homo sapiens (Human), UniProt O60674)	nM	998
N#CCN1CC2(CCC(c3cccc4nc(NC(=O)[C@@H]5CC5(F)F)nn34)CC2)C1 [Compound 9-6]	JAK2 (Homo sapiens (Human), UniProt O60674)	nM	1170
O=C(Nc1nc2cccc(C3CCC4(CC3)CCN(C(=O)C3CC3(F)F)C4)n2n1)C1CC1 (single isomer, unassigned) [Compound 5-7]	JAK2 (Homo sapiens (Human), UniProt O60674)	nM	324
N#CCC(=O)N1CC2(CCC(F)(c3cccc4nc(NC(=O)C5CC5)nn34)CC2)C1 [Compound 4-6]	JAK2 (Homo sapiens (Human), UniProt O60674)	nM	2010

Ask | Return IC50 for the following compound: O=C(Nc1nc2cccc(C3CCC4(CC3)CCN(C(=O)C3CC3(F)F)C4)n2n1)C1CC1 (single isomer, unassigned) [Compound 5-8]
Reply | 789

====

# study_target: UniProt P29597
# Sequence (P29597 whole entry): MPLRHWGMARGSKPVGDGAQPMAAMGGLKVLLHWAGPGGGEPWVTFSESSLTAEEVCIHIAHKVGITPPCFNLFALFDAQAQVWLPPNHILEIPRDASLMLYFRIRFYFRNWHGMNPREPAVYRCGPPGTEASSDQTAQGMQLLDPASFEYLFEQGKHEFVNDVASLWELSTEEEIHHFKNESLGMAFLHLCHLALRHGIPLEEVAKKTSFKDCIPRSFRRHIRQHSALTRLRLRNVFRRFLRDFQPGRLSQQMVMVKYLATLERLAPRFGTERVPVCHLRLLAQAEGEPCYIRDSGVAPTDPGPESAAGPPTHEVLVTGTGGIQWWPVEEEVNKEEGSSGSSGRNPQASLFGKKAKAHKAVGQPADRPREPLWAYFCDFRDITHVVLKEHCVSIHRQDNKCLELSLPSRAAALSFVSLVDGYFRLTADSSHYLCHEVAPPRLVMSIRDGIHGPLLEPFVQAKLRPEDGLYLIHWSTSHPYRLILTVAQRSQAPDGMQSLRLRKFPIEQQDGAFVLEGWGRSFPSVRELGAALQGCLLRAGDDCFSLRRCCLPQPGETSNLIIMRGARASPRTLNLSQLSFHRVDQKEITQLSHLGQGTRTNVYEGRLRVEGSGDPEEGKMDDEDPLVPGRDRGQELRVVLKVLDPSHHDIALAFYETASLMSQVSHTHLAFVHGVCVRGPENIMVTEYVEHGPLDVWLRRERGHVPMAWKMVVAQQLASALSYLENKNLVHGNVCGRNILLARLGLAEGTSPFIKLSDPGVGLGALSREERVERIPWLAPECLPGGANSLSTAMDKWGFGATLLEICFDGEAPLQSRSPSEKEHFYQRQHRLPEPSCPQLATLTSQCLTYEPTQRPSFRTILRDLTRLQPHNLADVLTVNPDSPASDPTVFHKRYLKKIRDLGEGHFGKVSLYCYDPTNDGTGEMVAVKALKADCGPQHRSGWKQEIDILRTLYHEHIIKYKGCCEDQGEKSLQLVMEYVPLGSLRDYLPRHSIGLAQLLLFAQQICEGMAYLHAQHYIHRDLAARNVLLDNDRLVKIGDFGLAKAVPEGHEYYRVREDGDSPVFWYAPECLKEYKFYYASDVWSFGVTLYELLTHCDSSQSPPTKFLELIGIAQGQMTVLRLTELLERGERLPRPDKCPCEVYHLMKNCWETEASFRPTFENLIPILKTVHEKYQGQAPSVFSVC
measured_parameter: log10 IC50 (log10 of the value in nM)
Please be aware that the numbers have been log10-transformed from IC50 in nM.

Below, each entry is followed by its recorded log10 IC50 result.
compound	measured_result
O=C(Nc1nc2cccc([C@@H]3CCC4(CCN(C(=O)[C@@H]5CC5(F)F)CC4)C3)n2n1)C1CC1 (single isomer, unassigned)	2.76
O=C(Nc1nc2cccc(C3CCC4(CC3)CCN(C(=O)C3CC3(F)F)C4)n2n1)C1CC1 (single isomer, unassigned) [Compound 5-7]	1.83
O=C(Nc1nc2cccc([C@H]3CCC4(CCN(C(=O)[C@@H]5CC5(F)F)CC4)C3)n2n1)C1CC1 (single isomer, unassigned)	2.92
O=C(Nc1nc2cccc(C3CCC4(CC3)CN(C(=O)[C@H]3CC3(F)F)C4)n2n1)[C@H]1CC1(F)F	2.10
N#CCN1CC2(CCC(c3cccc4nc(NC(=O)[C@@H]5CC5(F)F)nn34)CC2)C1	3.14

Ask | State the measured log10 IC50 (UniProt P29597) of N#CCC(=O)N1CC2(CCC(F)(c3cccc4nc(NC(=O)C5CC5)nn34)CC2)C1
Reply | 2.49

Ask | State the measured log10 IC50 (UniProt P29597) of O=C(Nc1nc2cccc(C3CCC4(CC3)CN(C(=O)[C@H]3CC3(F)F)C4)n2n1)[C@@H]1CC1(F)F
Reply | 2.02

Ask | State the measured log10 IC50 (UniProt P29597) of O=C(Nc1nc2cccc(C3CCC4(CC3)CCN(C(=O)C3CC3(F)F)C4)n2n1)C1CC1 (single isomer, unassigned) [Compound 5-8]
Reply | 2.84
